- target_under_test: shed MICA004 polypeptide (human) (UniProt Q29983)
- protocol_description: capture ELISA (anti-hFc / antibody / shed antigen / biotin-6D4)
assay_metric: EC50 (µg/mL)
Write the value in µg/mL as a bare number.

For orientation, consider the following solved cases.
#39 (antibody, V domains shown) VH: QVQLQQSGAELVRPGTSVKVSCKASGYAFTDYLIEWVKQRPGQGLEWIGGINPGSGSTNYNEKFKGKAILTADKSSSTAYMQLSSLTSDDSAVYFCARLDGNYVGYWGQGTTLTVSS VL: DILLTQSPASLSASVGETVTITCRASGNIHNYLAWYQQKQGKSPQLLVYHAKTLADGVPSRFSGSGSGTQYSLKINSLQPEDFGSYYCQHFWSTPWTFGGGTKLEIK ... 0.34
1D5 (antibody, human IgG1, kappa, V domains shown) VH: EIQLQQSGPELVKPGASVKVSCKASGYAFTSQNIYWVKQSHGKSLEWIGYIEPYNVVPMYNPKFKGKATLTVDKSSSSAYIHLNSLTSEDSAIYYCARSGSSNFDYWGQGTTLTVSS VL: EIILTQSPTTMAASPGEKITITCSASSSISSHYLHWYQQKSGFSPKLLIYRTSNLASGVPARFSGSGSGTSYSLTIGTMEAEDVATYYCQQGSSLPLTFGAGTKVEIKR ... 0.02

Could you now look at the following binder, please?
Query :: Look at this binder and give its reported EC50. #31 (antibody, V domains shown) VH: EVQLQQSGPELVKPGASVKVSCKASGYAFTKYNIYWVKQSHGKSLEWIGYIDPYNGGTVQNQKFKGKATLTVDKSSSTAYMHLNSLTSEDSAVYYCATTDGYSLFTYWGQGTLVTVSS VL: DIQMTQTTSSLSASLGDRVTISCRASQDIGNYLNWYQQKPDGTVKLLIYYTSRLHSGVPSRFSGSGSGTDYSLTISNLEQEDIATYFCQQGNTLPFTFGSGTKLEIK
Result :: 0.2
